Molecular target: cAMP and cAMP-inhibited cGMP 3',5'-cyclic phosphodiesterase 10A (Rattus norvegicus)
Sequence (Q9QYJ6 whole entry): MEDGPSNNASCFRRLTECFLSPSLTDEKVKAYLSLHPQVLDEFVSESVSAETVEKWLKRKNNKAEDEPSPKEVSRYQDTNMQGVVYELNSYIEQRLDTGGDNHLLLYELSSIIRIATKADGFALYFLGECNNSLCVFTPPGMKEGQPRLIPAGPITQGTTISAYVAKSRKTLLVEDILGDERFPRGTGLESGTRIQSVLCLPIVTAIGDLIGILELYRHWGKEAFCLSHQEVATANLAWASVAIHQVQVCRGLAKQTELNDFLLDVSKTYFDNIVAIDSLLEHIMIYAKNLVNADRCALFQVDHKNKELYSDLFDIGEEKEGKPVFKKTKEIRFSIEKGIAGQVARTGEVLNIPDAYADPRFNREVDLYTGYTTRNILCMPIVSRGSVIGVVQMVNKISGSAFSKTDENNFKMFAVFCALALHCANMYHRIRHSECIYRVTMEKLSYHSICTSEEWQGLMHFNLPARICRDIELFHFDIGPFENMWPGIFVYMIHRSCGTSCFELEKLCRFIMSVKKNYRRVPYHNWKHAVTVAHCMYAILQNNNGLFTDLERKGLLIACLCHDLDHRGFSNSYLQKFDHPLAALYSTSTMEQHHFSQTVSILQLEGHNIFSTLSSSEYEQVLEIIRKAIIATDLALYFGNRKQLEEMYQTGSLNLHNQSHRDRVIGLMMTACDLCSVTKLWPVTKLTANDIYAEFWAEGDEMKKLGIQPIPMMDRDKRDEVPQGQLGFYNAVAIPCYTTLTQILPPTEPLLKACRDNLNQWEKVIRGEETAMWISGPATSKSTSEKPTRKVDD
pIC50: −log10 of the molar value.
parameter: pIC50

A selection of reference data follows.
| compound | experimental-value |
| --- | --- |
| c1ccc2nc(N3CCC(Oc4nccnc4N4CCCC4)CC3)ccc2c1 | 6.54 |
| Cc1ccnc(N2CCC(Oc3ncccc3C3CCOCC3)CC2)c1 | 6.63 |
| c1ccc2nc(N3CC(Oc4nccnc4N4CCC(N5CCCC5)CC4)C3)ccc2c1 | 6.24 |
| c1cnc(O[C@H]2CCN(c3cc4ccccc4cn3)C2)c(C2CCOCC2)c1 | 5.53 |
| OCC1CCN(c2ncc(Cl)c(OC3CN(c4ccc5ccccc5n4)C3)n2)CC1 | 8.00 |

[A] COCC#Cc1nccnc1OC1CN(c2ccc3ccccc3n2)C1
[B] OCC1CCN(c2ncc(F)c(OC3CN(c4ccc5ccccc5n4)C3)n2)CC1
[C] c1cnc(O[C@H]2CCN(c3nc4ccccc4[nH]3)C2)c(C2CCOCC2)c1
[D] CC(=O)N1CC=C(c2nccnc2OC2CN(C(=O)OCc3ccccc3)C2)CC1
[E] O=[N+]([O-])c1ccc(N2CCC(Oc3ncccc3C3CCOCC3)CC2)nc1
Request: Please give the order of these compounds when sorted by pIC50, largest value leading. Order the labels as requested and give them as your answer.
Response: B, A, D, E, C

---

molecular target: cAMP and cAMP-inhibited cGMP 3',5'-cyclic phosphodiesterase 10A (Rattus norvegicus, UniProt Q9QYJ6)
parameter: IC50 (nM)

Check out these entries, answers already filled in.
| compound | parameter | quantity-unit | experimental-value |
| --- | --- | --- | --- |
| CC(C)Oc1cc(F)cc(-c2nccnc2OC2CN(c3ccc4ccccc4n3)C2)c1 | IC50 | nM | 174 |
| Cc1cnccc1-c1nccnc1OC1CN(c2ccc3ccccc3n2)C1 | IC50 | nM | 298 |
| Cc1cc(-c2nccnc2O[C@H]2CCN(c3ccc4ccccc4n3)C2)ccn1 | IC50 | nM | 639 |
| CC(=O)N1CCC(c2cc(C)cnc2OC2CN(c3ccc4ccccc4n3)C2)CC1 | IC50 | nM | 67.8 |
| Cc1cc(N2CCC(Oc3ncccc3C3CCOCC3)CC2)nc2ccccc12 | IC50 | nM | 101 |

[A] c1ccc2c(N3CC(Oc4nccnc4C4CCOCC4)C3)nccc2c1
[B] O=C(c1nc2ccccc2[nH]1)N1CC[C@@H](Oc2ncccc2C2=CCOCC2)C1
[C] OCC1CCN(c2ncc(N3CCCCC3)c(OC3CN(c4ccc5ccccc5n4)C3)n2)CC1
Request: Task for the reader: rank each entry by its IC50, from the minimum upward. Reply with the item labels sorted in the order that was asked for.
Response: C, B, A

---

Target: cAMP and cAMP-inhibited cGMP 3',5'-cyclic phosphodiesterase 10A (Rattus norvegicus, UniProt Q9QYJ6)
Sequence (Q9QYJ6 whole entry): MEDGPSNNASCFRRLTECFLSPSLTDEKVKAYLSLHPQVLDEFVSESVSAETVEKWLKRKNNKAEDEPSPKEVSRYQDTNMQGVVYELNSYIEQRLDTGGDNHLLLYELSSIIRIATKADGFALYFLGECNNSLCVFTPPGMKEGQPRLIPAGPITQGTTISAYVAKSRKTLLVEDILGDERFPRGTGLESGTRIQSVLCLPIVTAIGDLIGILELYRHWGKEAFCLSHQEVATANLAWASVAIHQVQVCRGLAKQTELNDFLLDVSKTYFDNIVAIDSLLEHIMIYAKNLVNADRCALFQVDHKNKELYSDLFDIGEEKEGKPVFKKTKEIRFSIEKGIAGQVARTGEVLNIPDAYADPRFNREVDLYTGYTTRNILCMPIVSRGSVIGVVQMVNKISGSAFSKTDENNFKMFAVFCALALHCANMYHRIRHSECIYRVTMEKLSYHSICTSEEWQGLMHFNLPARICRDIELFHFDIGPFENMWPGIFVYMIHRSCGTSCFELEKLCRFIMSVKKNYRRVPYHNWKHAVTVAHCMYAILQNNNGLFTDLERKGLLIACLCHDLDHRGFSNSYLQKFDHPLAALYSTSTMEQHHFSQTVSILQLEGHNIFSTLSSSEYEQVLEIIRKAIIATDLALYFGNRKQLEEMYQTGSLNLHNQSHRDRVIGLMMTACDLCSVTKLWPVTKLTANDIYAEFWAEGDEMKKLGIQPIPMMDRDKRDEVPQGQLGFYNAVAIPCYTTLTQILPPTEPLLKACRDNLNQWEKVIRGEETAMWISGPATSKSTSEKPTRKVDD
pIC50: −log10 of the molar value.
parameter: pIC50

| compound | experimental-value |
| --- | --- |
| c1ccc2nc(N3CC(Oc4nccnc4-c4cccc5ncccc45)C3)ccc2c1 | 7.06 |

[1] OCC1CCN(c2ncc(Br)c(OC3CN(c4ccc5ccccc5n4)C3)n2)CC1
[2] CC(=O)c1ccc(N2CCC(Oc3ncccc3C3CCOCC3)CC2)nc1
Request: Lower value for measured pIC50? Options: 1 , 2 In your reply, give the label of the chosen option.
Response: 2

[1] CC(=O)c1cccc(-c2nccnc2OC2CN(c3ccc4ccccc4n3)C2)c1
[2] Cc1cccc(C(=O)N2CCC(Oc3ncccc3C3CCOCC3)CC2)n1
Request: Of 1 and 2 , which shows the smaller pIC50 value? Your answer should be the label attached to the chosen record.
Response: 2
(2: 5.93, 1: 7.95)

---

Dear all, this message contains IC50 results, target or system UniProt:Q9QYJ6.
parameter: IC50 (µM)

| compound | parameter | experimental-value |
| --- | --- | --- |
| CC(=O)N1CCC(c2nccnc2OC2CCN(c3cc(Cl)ccn3)CC2)CC1 | IC50 | 0.096 |
| Cc1ccccc1-c1nccnc1OC1CN(c2ccc3ccccc3n2)C1 | IC50 | 0.128 |
| Nc1ccc(-c2nccc(OC3CN(c4ccc5ccccc5n4)C3)n2)cc1 | IC50 | 0.11 |

---

target: UniProt Q9QYJ6; test: Enzyme Inhibition Assay: Enzyme activity: An IMAP TR-FRET assay was used to analyze the enzyme activity (Molecular Devices Corp., Sunnyvale, Calif).
parameter: IC50 (nM)

Example results:
| molecule | assay-system | quantity-unit | IC50 |
| --- | --- | --- | --- |
| O=C(c1ccc2ccccc2n1)N1CCC(Oc2ncccc2C2CCOCC2)CC1 | UniProt Q9QYJ6 | nM | 809 |
| Fc1ccc(N2CCC(Oc3ncccc3C3CCOCC3)CC2)nc1 | UniProt Q9QYJ6 | nM | 2960 |
| c1ccc2cc(N3CC(Oc4nccnc4C4CCOCC4)C3)ncc2c1 | UniProt Q9QYJ6 | nM | 4960 |
| CC(C)(C)OC(=O)N1CC=C(c2cnc(N3CCC(CO)CC3)nc2OC2CN(c3ccc4ccccc4n3)C2)CC1 | UniProt Q9QYJ6 | nM | 0.3 |
| CN(C)C1CCN(c2nccnc2OC2CN(c3ccc4ccccc4n3)C2)CC1 | UniProt Q9QYJ6 | nM | 520 |

[a] c1ccc2nc(N3CCC(Oc4nccnc4N4CC5(COC5)C4)CC3)ccc2c1
[b] Fc1cnc(OC2CN(c3ccc4ccccc4n3)C2)c(N2CCC(F)(F)CC2)c1
Request: Form: Entry with minimum IC50 (choose one): a / b Please indicate the selected item by its label.
Response: b
(b: 144 nM, a: 345 nM)

[I] CC(=O)N1CCC(c2nccnc2OC2CCN(c3ccc(Cl)cn3)CC2)CC1
[II] Cc1cccnc1N1CCC(Oc2ncccc2C2CCOCC2)CC1
[III] Cc1ccnc(C(=O)N2CCC(Oc3ncccc3C3CCOCC3)CC2)c1
[IV] CC1CN(c2nccnc2OC2CN(c3ccc4ccccc4n3)C2)CCO1 (stereo not drawn)
Request: Exam item: list the entries in increasing order of IC50. Please list the labels in the order you were asked to rank them.
Response: IV, III, II, I

[1] OCc1ccc(-c2nccc(OC3CN(c4ccc5ccccc5n4)C3)n2)cc1
[2] COCC1CCN(c2nccnc2OC2CCN(c3ccc4ccccc4n3)CC2)CC1
Request: In terms of reported IC50, does 1 or 2 have the smaller number? Please respond with the label that marks your chosen entry.
Response: 1
(1: 8.45 nM, 2: 1120 nM)
